Tested on: recombinant 0N4R Tau fibrils
Assay: ^3H-THK5117 competition binding to tau fibrils in vitro
Details: calculated from [^3H]-THK5117 tau and [^3H]-AZD2184 Aβ assay results
Observable: Selectivity for tau relative to Aβ

1) Oc1ccc2[nH]c(-c3ccc(N4CCC[C@@H](O)C4)nc3F)cc2c1	37
2) OCC1(O)CCN(c2ccc(-c3cc4cc(O)ccc4[nH]3)c(F)n2)CC1	0.2
3) O[C@@H]1CCCN(c2ncc(-c3cc4cc(OCCOCCOCCF)ccc4[nH]3)cn2)C1	0.3
4) OCC1CCN(c2ccc(-c3cc4ccc(O)cc4[nH]3)c(F)n2)CC1	1

P. Oc1ccc2[nH]c(-c3ccc(N4CCC[C@@H](O)C4)nc3)cc2c1
Q. O[C@@H]1CCCN(c2ccc(-c3cc4cc(OCCF)ccc4[nH]3)cn2)C1
R. Oc1ccc2[nH]c(-c3cnc(N4CCC[C@@H](O)C4)nc3)cc2c1
S. Oc1ccc2[nH]c(-c3ccc(N4CCC[C@H](O)C4)nc3F)cc2c1
T. CNc1ccc(/C=C/C=C/c2nc3ccc(O)cc3s2)cn1 [PBB3, reference compound]
Reorder the items by Selectivity for tau relative to Aβ, least to greatest. To answer, write out the labels according to the requested order. R, P, Q, T, S
(R: 0.6, P: 1.3, Q: 2, T: 4, S: 8.9)

A. COc1ccc2nc(-c3ccc(N4CC[C@H](O)C4)nc3)sc2c1
B. COc1ccc2nc(-c3ccc(N4CCC(O)(CO)CC4)nc3)sc2c1
C. OCCC1CN(c2ccc(-c3cc4cc(O)ccc4[nH]3)c(F)n2)C1
Could you please sort these 3 entries by Selectivity for tau relative to Aβ from high to low? To answer, write out the labels according to the requested order. B, C, A

A. O[C@@H]1CCCN(c2ccc(-c3cc4cc(OCCOCCOCCF)ccc4[nH]3)cn2)C1
B. COc1ccc2nc(-c3ccc(N4CC[C@@H](O)C4)nc3)sc2c1
Kindly identify which of A and B has the larger recorded Selectivity for tau relative to Aβ value. The response must carry the label of the picked entry. A

A. O[C@@H]1CCCN(c2ncc(-c3cc4cc(OCCF)ccc4[nH]3)cn2)C1
B. COc1ccc2nc(-c3ccc(N4CCCC(O)C4)nc3)sc2c1 (centres unmarked)
Kindly identify which of A and B has the larger recorded Selectivity for tau relative to Aβ value. The response must carry the label of the picked entry. B

====

Molecular target: recombinant 0N4R Tau fibrils (Homo sapiens (Human), UniProt P10636)
Sequence (P10636 other isoform, or with tags, fused parts or gaps): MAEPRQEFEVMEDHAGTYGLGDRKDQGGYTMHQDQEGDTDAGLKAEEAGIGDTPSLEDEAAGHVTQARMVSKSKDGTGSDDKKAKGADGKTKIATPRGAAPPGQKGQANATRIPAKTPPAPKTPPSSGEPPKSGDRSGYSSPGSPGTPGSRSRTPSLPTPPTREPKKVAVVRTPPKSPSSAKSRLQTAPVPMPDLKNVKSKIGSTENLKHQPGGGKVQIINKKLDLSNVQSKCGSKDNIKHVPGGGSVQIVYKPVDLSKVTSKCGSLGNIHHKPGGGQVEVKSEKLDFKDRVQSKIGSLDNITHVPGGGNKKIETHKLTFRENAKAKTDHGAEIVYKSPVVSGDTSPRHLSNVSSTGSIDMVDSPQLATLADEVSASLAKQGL
Assay: ^3H-THK5117 competition binding to tau fibrils in vitro
Conditions: competition with 3 nM [^3H]-THK5117, 0N4R tau fibrils, 1 h, 22° C.; average if run more than once
pIC50: −log10 of the molar value.
Observable: pIC50

1) COc1ccc2nc(-c3ccc(N4C[C@H](O)C[C@@H](O)C4)nc3)sc2c1	7.21
2) COc1ccc2nc(-c3ccc(N4CCCC(O)C4)nc3)sc2c1 (stereo not shown)	8.40
3) COc1ccc2nc(-c3ccc(N4CC[C@H](O)C4)nc3)sc2c1	7.96
4) CNc1ccc(/C=C/C=C/c2nc3ccc(O)cc3s2)cn1 [PBB3, reference compound]	8.15
5) O[C@@H]1CCCN(c2ncc(-c3cc4cc(OCCF)ccc4[nH]3)cn2)C1	8.00
6) Oc1ccc2[nH]c(-c3ccc(N4CCC[C@@H](O)C4)nc3F)cc2c1	9.00
7) Oc1ccc2[nH]c(-c3ccc(N4CCC[C@H](O)C4)nc3F)cc2c1	8.05
8) COc1ccc2nc(-c3ccc(N4C[C@H](O)C[C@H](O)C4)nc3)sc2c1	7.40

1. OCC1(O)CCN(c2ccc(-c3cc4cc(O)ccc4[nH]3)c(F)n2)CC1
2. OCC1CCN(c2ccc(-c3cc4ccc(O)cc4[nH]3)c(F)n2)CC1
# min-compare on pIC50 between 1 and 2 The response must carry the label of the picked entry. 1
(1: 7.40, 2: 8.52)

Just for reference, patent US20240165276A1 is where these values come from.
